Give measured IC50 for each item. Keep answers brief.
# Test system: E. coli BW25113 ΔtolC growth inhibition, OD615
# method-description: growth inhibitors of E. coli tolC mutant, dose response, strain BW25113 ΔtolC::kan (AID 617);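 also: growth read after 20 h at 37 °C with compound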

Reported IC50 for Cc1cccc(C(C)(C)C)c1OCCn1ccnc1 was 11.8 µM

Reported IC50 for O=C(CSc1ncc(-c2ccc(F)cc2)n1Cc1ccco1)Nc1ccc2c(c1)OCO2 was 7.29 µM

Reported IC50 for CCOC(=O)c1ccc(NC(=O)CSc2nc(SC)ns2)cc1 was 9.73 µM

Reported IC50 for CCn1c(Cn2nnc(-c3ccccc3)n2)nnc1SCc1ccc(Cl)c(Cl)c1 was 7.77 µM

Reported IC50 for CCOc1ccc2nc(N3CCCN(C(=O)Nc4ccccc4C)CC3)c(C#N)cc2c1 was 36.3 µM

Reported IC50 for Cc1cc(C)c(C#N)c(SCS(=O)c2ccc(C(C)(C)C)cc2)n1 (stereo not given) was 40.1 µM

Reported IC50 for CCOc1ccc(S(=O)(=O)Nc2cccc(Cl)c2)cc1 was 4.98 µM

Reported IC50 for COc1cccc(-c2cc(C(F)(F)F)nc(N3CCOCC3)n2)c1 was 16.5 µM

Reported IC50 for COc1nc(N(c2ccccc2)c2ccccc2)nc(-n2ccnc2)n1 was 5.65 µM

Reported IC50 for Cc1cc2n(n1)C(c1ccc3c(c1)OCO3)Nc1c(C)cccc1-2 (stereo not given) was 29.6 µM

* * *

# Tested on: E. coli BW25113 ΔtolC growth inhibition, OD615
# method-description: growth inhibitors of E. coli tolC mutant, dose response, strain BW25113 ΔtolC::kan (AID 617);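 also: growth read after 20 h at 37 °C with compound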
measured-property: pIC50
Lab note — pIC50 values are minus log10 of concentrations in M.

Reported pIC50 for CCSc1nnc(NC(=O)c2cccc(OCc3c(C)noc3C)c2)s1 was 4.97

Reported pIC50 for O=c1n(Cc2ccc(Cl)cc2)c2sc3c(c2c2ncnn12)CCCC3 was 5.13

Reported pIC50 for Cc1ccc(NC(=O)N2CCC(c3nc4c(nnn4Cc4cccc(Cl)c4)c(=O)[nH]3)CC2)cc1 was 4.87

* * *

# Tested on: E. coli BW25113 ΔtolC growth inhibition, OD615
# method-description: growth inhibitors of E. coli tolC mutant, dose response, strain BW25113 ΔtolC::kan (AID 617);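 also: growth read after 20 h at 37 °C with compound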
pIC50: −log10 of the molar value.
pIC50 below 5 gives NO; pIC50 at or above it gives YES.

// query Given the entry CC(=Nc1ccc(O)cc1)c1sc2ccccc2c1O , answer whether its pIC50 meets or surpasses 5.
// result YES

// query Given the entry Cc1cccc2cc(CN(Cc3ccco3)C(=O)NC3CCCCC3)c(=O)[nH]c12 , answer whether its pIC50 meets or surpasses 5.
// result NO

// query Given the entry Fc1cccc2sc(Nc3nnc(-c4ccco4)o3)nc12 , answer whether its pIC50 meets or surpasses 5.
// result YES

// query Given the entry Oc1ccc(Cl)cc1-c1cc(-c2ccccc2)n[nH]1 , answer whether its pIC50 meets or surpasses 5.
// result YES

// query Given the entry CCOC(=O)c1cn(CC)c2cc(N3CCCCC3)c(F)cc2c1=O , answer whether its pIC50 meets or surpasses 5.
// result YES

// query Given the entry CCOC(=O)c1ccccc1NC(=O)c1c(F)c(F)c(F)c(F)c1F , answer whether its pIC50 meets or surpasses 5.
// result NO

// query Given the entry COc1ccccc1Cc1nc(-c2ccc(Br)o2)no1 , answer whether its pIC50 meets or surpasses 5.
// result NO

// query Given the entry OCCN(CCO)c1nc(N2CCCCC2)c2nc(N(CCO)CCO)nc(N3CCCCC3)c2n1 , answer whether its pIC50 meets or surpasses 5.
// result YES

// query Given the entry COc1ccc(-c2nnc(NC(=O)c3ccc(S(=O)(=O)N4COCC4(C)C)cc3)o2)cc1 , answer whether its pIC50 meets or surpasses 5.
// result YES

// query Given the entry CCc1ccc2[nH]c(=O)c(C(c3nnnn3CCOC)N3CCN(c4ccc(F)cc4)CC3)cc2c1 (stereo not drawn) , answer whether its pIC50 meets or surpasses 5.
// result NO

// query Given the entry C=C(C)COc1ccc(-c2ncncc2Oc2ccc(OC)cc2)c(O)c1 , answer whether its pIC50 meets or surpasses 5.
// result NO

// query Given the entry COCc1nnc(NC(=O)c2ccc(S(=O)(=O)N(C)C3CCCCC3)cc2)o1 , answer whether its pIC50 meets or surpasses 5.
// result YES

// query Given the entry O=c1c2c(nc3n1CCCCC3)-c1ccccc1CC21CCCC1 , answer whether its pIC50 meets or surpasses 5.
// result NO

// query Given the entry O=C(NCc1ccco1)c1sc(=S)n2c1[nH]c(=O)c1ccccc12 , answer whether its pIC50 meets or surpasses 5.
// result YES

// query Given the entry CCOc1ccc(C(=O)C2CCN(CC(=O)Nc3ccccc3N3CCOCC3)CC2)cc1 , answer whether its pIC50 meets or surpasses 5.
// result NO

// query Given the entry CCOc1cc(S(=O)(=O)n2cc(-c3ccc(F)cc3)c(N)n2)cc(OCC)c1OCC , answer whether its pIC50 meets or surpasses 5.
// result NO

// query Given the entry CCOC(=O)c1ccc(Oc2nc(NC(C)(C)C)nc(N(C)C)n2)cc1 , answer whether its pIC50 meets or surpasses 5.
// result NO

// query Given the entry Cc1ccccc1-c1nnc(SCc2ccccc2F)o1 , answer whether its pIC50 meets or surpasses 5.
// result NO

// query Given the entry O=C(Nc1nc2n(n1)C(c1ccc(Cl)cc1)CC(c1ccc(Cl)cc1)N2)c1ccco1 (stereo not drawn) , answer whether its pIC50 meets or surpasses 5.
// result YES

// query Given the entry CC(C)c1ccc(OCc2nc(-c3ccccn3)no2)c(Br)c1 , answer whether its pIC50 meets or surpasses 5.
// result NO

// query Given the entry CCOC(=O)c1c(NS(=O)(=O)c2cccc(OC)c2)sc2c1CCC2 , answer whether its pIC50 meets or surpasses 5.
// result NO

// query Given the entry O=C(CN(Cc1ccc2c(c1)OCO2)C(=O)CSc1nc2ccccc2o1)NC1CCCCC1 , answer whether its pIC50 meets or surpasses 5.
// result YES

// query Given the entry Cc1ccc(C)c(Cn2c(CN(C)Cc3ccccc3)nc3c2c(=O)n(C)c(=O)n3C)c1 , answer whether its pIC50 meets or surpasses 5.
// result NO

// query Given the entry O=C(Oc1ccc2ccccc2c1Cl)N1CCCC1 , answer whether its pIC50 meets or surpasses 5.
// result NO

// query Given the entry Cc1ccsc1C(=O)Nc1nnc(-c2ccco2)o1 , answer whether its pIC50 meets or surpasses 5.
// result YES

// query Given the entry CC1CCCCN1S(=O)(=O)c1ccc(C(=O)Nc2nnc(-c3cccs3)o2)cc1 (stereo not drawn) , answer whether its pIC50 meets or surpasses 5.
// result YES

// query Given the entry CCn1nc(-c2cccs2)nc2c(=O)n(C)c(=O)nc1-2 , answer whether its pIC50 meets or surpasses 5.
// result YES

// query Given the entry N#CC1=C(N)SC(N)=C(C#N)C1CCC1CCCCC1 , answer whether its pIC50 meets or surpasses 5.
// result YES

// query Given the entry N#Cc1ccc(CSc2nnc(-c3cccs3)n2-c2ccccc2)cc1 , answer whether its pIC50 meets or surpasses 5.
// result NO

// query Given the entry C=C(C)COc1ccc(-c2[nH]ncc2Oc2ccccc2OC)c(O)c1 , answer whether its pIC50 meets or surpasses 5.
// result YES

// query Given the entry Cc1ccc(-c2nnc(N3CCN(c4ccccn4)CC3)c3ccccc23)cc1 , answer whether its pIC50 meets or surpasses 5.
// result YES

* * *

Give measured pIC50 for each item. Keep answers brief.
# System: E. coli BW25113 ΔtolC growth inhibition, OD615
# method-description: growth inhibitors of E. coli tolC mutant, dose response, strain BW25113 ΔtolC::kan (AID 617);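 also: growth read after 20 h at 37 °C with compound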
Lab note — pIC50 values are minus log10 of concentrations in M.

Reported pIC50 for COc1cccc(-c2csc(N3CCN(C(=O)C4CCCCC4)CC3)n2)c1 was 4.78

Reported pIC50 for Cc1cc(C)c(C#N)c(N2CCN(CCOc3ccc(Cl)cc3)CC2)n1 was 4.98

Reported pIC50 for Cc1cccn2c(=O)c3cc(C(=O)NCc4ccco4)c(=N)n(CCc4ccccc4)c3nc12 was 4.37

* * *

# Tested on: E. coli BW25113 ΔtolC growth inhibition, OD615
# method-description: growth inhibitors of E. coli tolC mutant, dose response, strain BW25113 ΔtolC::kan (AID 617);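 also: growth read after 20 h at 37 °C with compound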
measured-property: pIC50
Lab note — pIC50 values are minus log10 of concentrations in M.

Reported pIC50 for CCCn1c(=O)c(C(=O)Nc2nnc(C)s2)c(O)c2ccccc21 was 4.92

Reported pIC50 for CCOC(=O)Cc1ccc(NS(=O)(=O)c2ccc(SC)cc2)cc1 was 4.83

Reported pIC50 for CCOC(=O)c1cc2sccc2n1CC(=O)N1CCCc2ccccc21 was 4.82

Reported pIC50 for COc1cc2cc(C(c3nnnn3C3CCCCC3)N(C)C3CCCCC3)c(=O)[nH]c2cc1OC (stereo unspecified) was 5.01

Reported pIC50 for Cc1ccc(-c2nnn(CC(=O)N(Cc3ccco3)C(C(=O)NC(C)(C)C)c3cccs3)n2)o1 (stereo unspecified) was 4.63

Reported pIC50 for COc1ccc(C(C(O)C(=O)c2c[nH]c3ccccc23)N2CCN(c3ccc(OC)cc3)CC2)cc1 (stereo unspecified) was 4.95
